Test: probe aDKK1 binding to arrayed compounds – biochemical, biotinylated probe, 635/667 nm fluorescence, primary screen (AID 1099);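 note: score merges 667nm spot fluorescence with signal to noise across triplicate slides; reference of the scale not given here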
Details: small-molecule microarray, higher = more signal

MOLECULE	composite z-score
CC(C)Cc1ccc(CN2CC[C@@H](N)C2)cc1	-0.459
COc1ccc(CCNC(=O)[C@@]2(c3ccc([N+](=O)[O-])cc3)CC(=O)N(CC34CC5CC(CC(C5)C3)C4)[C@@H]2c2ccc(CO)cc2I)cc1	-0.153
O=C1O[C@H](c2ccccc2)[C@H](c2ccccc2)N2[C@H]1[C@@H](C(=O)NC[C@H](O)c1ccccc1)[C@]1(C(=O)Nc3ccc(C#CC4=CCCCC4)cc31)[C@H]2c1ccccc1OCCO	0.697
COCCCNC(=O)[C@@]1(Cc2ccccc2)N=C(c2ccc(OCCCO)cc2)O[C@H]1c1ccccc1CN=[N+]=[N-]	1.09
O=C1C2C=CC(C(O)c3cc(C(F)(F)F)cc(C(F)(F)F)c3)N(Nc3ccccc3)C2C(=O)N1c1ccccc1 (centres undefined)	0.723
C=CC[C@@]1(C(=O)N2CCCCC2)N=C(c2ccc(OCCCO)cc2)O[C@@H]1c1ccccc1N=[N+]=[N-]	1.19
COCCCNC(=O)[C@]1(Cc2ccccc2)N=C(c2ccc(OCCCO)cc2)O[C@@H]1c1ccccc1CN=[N+]=[N-]	1.2
C[N+](C)(C)CCCC[C@@H]1NC(=O)[C@@H]2C[C@H](C(=O)NCCCCCN)[C@H](c3ccc(O)cc3)N2C1=O	1.16
CS(=O)(=O)CCOC(=O)C1=CC(CCCO)=CC(C2CC2)N(Cc2cc3c(cc2Br)OCO3)C=C1C(=O)OCCS(C)(=O)=O (centres undefined)	0.049
NCCCCCNC(=O)[C@H]1C[C@H]2C(=O)N[C@@H](Cc3ccccc3)C(=O)N2[C@H]1c1cccc(OCCO)c1	1.15
COC(=O)[C@@]1(Cc2ccccc2)[C@H]2c3cc(C(=O)N4CCCC4)n(Cc4ccc(O)c(OC)c4)c3C[C@H]2CN1C(=O)c1ccccc1	0.611
CO[C@H]1O[C@H](CO)[C@@H](OC(=O)Nc2ccccc2-c2ccccc2)[C@H](OC(=O)Nc2ccccc2-c2ccccc2)[C@@H]1OC(=O)Nc1ccccc1-c1ccccc1	0.408
CN1C(=O)C2C=CC(C(O)c3ccccc3)N(N3CCCCC3)C2C1=O (centres undefined)	0.159
CO[C@H]1O[C@H](CO)[C@@H](OC(=O)Nc2ccc(Oc3ccccc3)cc2)[C@H](OC(=O)Nc2ccc3c(c2)OCO3)[C@@H]1OC(=O)Nc1ccc2c(c1)OCO2	0.337

---

Assay: COS7 lysate on small-molecule microarray, probe aHis, 635 nm (AID 1123);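 note: z-score combines 667nm fluorescence intensity with signal-to-noise per printed compound spot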
Conditions: COS7 cell lysate, fluorescence, higher = more signal
This listing pairs compounds with measured composite z-score.
METRIC: composite z-score

                                   compound    val
0  CCCCC(O)C1C=CC2C(=O)N(C)C(=O)C2N1N1CCCCC1 (centres undefined)   2.45
1  CN1C(=O)C2C=CC(C(O)c3c(F)cccc3Cl)N(NC(=O)OC(C)(C)C)C2C1=O (centres undefined)   2.75
2  O=C1N(CCS(=O)(=O)c2ccccc2)c2ccccc2[C@@H]2OC(c3ccc(OCCCO)cc3)=N[C@]12Cc1ccccc1  0.898
3  CC[C@@H]1C=C(C(=O)O)[C@H](c2ccc(C)cc2)N1S(=O)(=O)c1ccc(C)cc1  0.969
4         CC#CC(=O)Oc1ccc(Br)cc1C=CC(=O)OCC  0.942
5  COC(=O)[C@@]1(Cc2ccc(OC)cc2)[C@H]2c3cc(C(=O)N4CCCC4)n(Cc4nc5ccccc5[nH]4)c3C[C@H]2CN1C(=O)c1ccccc1   3.39
6  COC(=O)[C@@]1(Cc2ccc(OC)cc2)[C@H]2c3cc(C(=O)N(C)C)n(Cc4ccc(C(F)(F)F)nc4)c3C[C@H]2CN1C(=O)c1ccccc1   2.11
7  CCOC(=O)C1=C[C@@H](C(C)C)N(S(=O)(=O)c2ccc(C)cc2)[C@H]1c1ccccc1F   1.66
8  CCOC(=O)C1=CC[C@@H](c2ccc(C(F)(F)F)cc2)N(S(=O)(=O)c2ccc(C)cc2)[C@H]1c1ccccc1   2.27

---

Test: JC-1 mitochondrial signal, unstimulated adipocytes – cell-based, JC-1 fluorescence, 3T3-L1 adipocytes, 24 h, 100 nL compound, profiling panel (AID 1168); note: test concentration not given here
Details: JC-1 mitochondrial fluorescence, higher = more signal, called active from +8 up or from −8 down
METRIC: z-score

                                   compound      val
0  COc1ccc(C(=O)Nc2ccc(CN3C(=O)[C@]4(O[C@H](CC(=O)N5CCC[C@H]5CO)[C@@H]([Si](C)(C)c5ccc(OC)cc5)[C@@H]4C)c4ccccc43)cc2)cc1  -0.0307
1  COc1ccccc1CN1C(=O)c2ccccc2[C@@H](C(=O)NCc2ccccc2)[C@@H]1c1ccc(CO)cc1    0.819
2  O=C1OCC=C[C@H]2OC34C=CCN(CCN5CCOCC5)C(=O)[C@H]3N(CCO)C(=O)[C@@H]4[C@@H]12 (some centres not stated)  0.00617
3  CCC(CC)C(O)C1C=CC2C(=O)N(c3ccccc3)C(=O)C2N1Nc1ccccc1 (configuration not stated)    -2.32
4  O=C1NC(=O)C2C1C=CC(C(O)C=Cc1ccc([N+](=O)[O-])cc1)N2Nc1ccc(Cl)cc1Cl (configuration not stated)   -0.726
5  COc1ccc(C(=O)Nc2cccc(CN3C(=O)[C@]4(O[C@H](CCn5cc(CCO)nn5)[C@@H]([Si](C)(C)c5ccc(OC)cc5)[C@@H]4C)c4ccccc43)c2)cc1     1.51
6  O=C(O)[C@H](Cc1ccccc1)n1cc(-c2ccccc2)nn1  -0.0821

---

Target: Neurogenic locus notch homolog protein 2 (Homo sapiens)
Assay: small molecules binding Notch2 protein – biochemical, small-molecule microarray, 635 nm fluorescence, stem cell growth factors, primary screen (AID 1073)
Settings: higher = more signal
METRIC: composite z-score

>>> df
                                    compound                              assay_system             metric    val
 0  O=C(NC1CC1)[C@@H]1c2ccccc2C(=O)N(C2Cc3ccccc3C2)[C@H]1c1ccc(CO)cc1  Neurogenic locus notch homolog protein 2 (Homo sapiens)  composite z-score   1.01
 1  CC(C)CNC(=O)[C@@]1(Cc2ccccc2I)c2ccccc2C(=O)N(Cc2ccccc2C(F)(F)F)[C@H]1c1ccc(CO)cc1  Neurogenic locus notch homolog protein 2 (Homo sapiens)  composite z-score  -1.46
 2    CC(C)[Si](C#CCCCC#N)(Oc1ccccc1Br)C(C)C  Neurogenic locus notch homolog protein 2 (Homo sapiens)  composite z-score  0.266
 3  [N-]=[N+]=NCc1ccccc1[C@@H]1OC(c2ccc(OCCCO)cc2)=N[C@]1(CCS(=O)(=O)c1ccccc1)C(=O)N1CCOCC1  Neurogenic locus notch homolog protein 2 (Homo sapiens)  composite z-score   1.64
 4  COCCCNC(=O)[C@@]1(Sc2ccc(C)cc2)CC(=O)N(Cc2ccccc2Cl)[C@@H]1c1ccc(CO)cc1  Neurogenic locus notch homolog protein 2 (Homo sapiens)  composite z-score  0.307
 5  CC(=O)NCCCC[C@@H]1NC(=O)[C@H]2C[C@@H](C(=O)O)[C@@H](c3ccc(O)cc3)N2C1=O  Neurogenic locus notch homolog protein 2 (Homo sapiens)  composite z-score   1.23
 6  C=C(CCCC)/C(=C/C[C@H](OC(C)=O)c1ccc(OCCO)cc1)c1cnc2ccccc2c1  Neurogenic locus notch homolog protein 2 (Homo sapiens)  composite z-score   1.21
 7  CCOC(=O)C1=CCC(c2ccc(F)cc2)N(S(=O)(=O)c2ccc(C)cc2)C1 (stereo not given)  Neurogenic locus notch homolog protein 2 (Homo sapiens)  composite z-score  0.552
 8  COC(=O)c1c(CC[C@@H](CO)NC(=O)N[C@@H](Cc2ccccc2)Cn2cc(-c3ccccn3)nn2)oc(C(=O)N2CCOCC2)c1C(=O)OC  Neurogenic locus notch homolog protein 2 (Homo sapiens)  composite z-score  0.303
 9  COC(=O)[C@@]1(Cc2ccccc2)[C@H]2c3cc(C(=O)N4CCCC4)n(Cc4c(CO)[nH]cc(C)c4=O)c3C[C@H]2CN1C(=O)c1ccccc1  Neurogenic locus notch homolog protein 2 (Homo sapiens)  composite z-score   1.63
10  COC(=O)c1c2oc(c1C(=O)OC)C(=O)NC1(CCCCC1)c1cn(nn1)C[C@H](Cc1ccccc1)NC(=O)N[C@H](CO)CC2  Neurogenic locus notch homolog protein 2 (Homo sapiens)  composite z-score  0.531
11  COc1ccc([Si](C)(C)[C@@H]2[C@@H](CC(=O)N3CCC[C@H]3CO)O[C@]3(C(=O)N(Cc4cccc(I)c4)c4ccccc43)[C@H]2C)cc1  Neurogenic locus notch homolog protein 2 (Homo sapiens)  composite z-score   1.08
12  COC(=O)[C@@]1(Cc2ccc(OC)cc2)[C@H]2c3cc(C(=O)N(C)C)n(Cc4ccc(C(F)(F)F)nc4)c3C[C@H]2CN1C(=O)c1ccccc1  Neurogenic locus notch homolog protein 2 (Homo sapiens)  composite z-score   1.53
13  CS(=O)(=O)CCOC(=O)C1=CC(CCCO)=CC(C2CC2)N(Cc2cc3c(cc2Br)OCO3)C=C1C(=O)OCCS(C)(=O)=O (stereo not given)  Neurogenic locus notch homolog protein 2 (Homo sapiens)  composite z-score    0.6
14  COCCCNC(=O)[C@@H]1c2ccccc2C(=O)N(Cc2ccccc2)[C@H]1c1ccc(CO)cc1  Neurogenic locus notch homolog protein 2 (Homo sapiens)  composite z-score  0.712
